# MEASUREMENT TARGET: HLA-A*02 (human)
# EXPERIMENTAL PROTOCOL: UV-ligand exchange, anti-b2m ELISA; grade: exchange yield >=50%
ASSAY READOUT: peptide exchange yield

binder=SMGDHLWVA assay_readout="peptide exchange yield" result="50 to 75%"
binder=YLGPHIASVTL assay_readout="peptide exchange yield" result="50 to 75%"
binder=SVLDQKILL assay_readout="peptide exchange yield" result="50 to 75%"
binder=GLLDNPELRV assay_readout="peptide exchange yield" result="50 to 75%"
binder=VLLAQIIQV assay_readout="peptide exchange yield" result="50 to 75%"
binder=ALLRVTPFI assay_readout="peptide exchange yield" result="50 to 75%"
binder=RLAAFYSQV assay_readout="peptide exchange yield" result="50 to 75%"
binder=LLHGHIVEL assay_readout="peptide exchange yield" result="50 to 75%"
binder=TLFEHLPHI assay_readout="peptide exchange yield" result="50 to 75%"
binder=VLPNFLPYNV assay_readout="peptide exchange yield" result="50 to 75%"
binder=SLAESSFDV assay_readout="peptide exchange yield" result="50 to 75%"
binder=RMSDVVKGV assay_readout="peptide exchange yield" result="50 to 75%"
binder=RLPDIPLRQV assay_readout="peptide exchange yield" result="50 to 75%"
binder=VVLDGGQIVTV assay_readout="peptide exchange yield" result="50 to 75%"
binder=SLHNGVIQL assay_readout="peptide exchange yield" result="50 to 75%"
binder=TLAELGAVQV assay_readout="peptide exchange yield" result="50 to 75%"
